Test system: ACHN renal
protocolText: NCI-60 one-dose screen, 48 h
conditionSet: 10 µM unless noted
About 83,000 compounds went through this panel and 20% of them were active in at least one assay; those are over-represented in the sample as a whole. Active and inactive are the calls of the source. Rule for the calls: active = growth percent below 10; inactive = the rest.
# output must be one of yes (1) = active, no (0) = inactive

Dear all, I need the recorded test outcome for COc1ccc(/C=C2\COc3ccc(O)c(O)c3C2=O)c(OC)c1OC , thank you. no (0)

Dear all, I need the recorded test outcome for C=C1C(=O)O[C@H]2[C@H]1CC/C(CNS(=O)(=O)c1ccc3ccccc3c1)=C\CC[C@@]1(C)O[C@@H]21 , thank you. yes (1)

Dear all, I need the recorded test outcome for COc1cc(-c2nn(-c3cccc(NC(=O)CCN4CCN(C)CC4)c3)cc2-c2ccncc2)ccc1Cl , thank you. no (0)

Dear all, I need the recorded test outcome for CC/C=C\C/C=C\C[C@H](O)C/C=C1/C(=O)C=C[C@@H]1C/C=C\CCCC(=O)OC , thank you. yes (1)

Dear all, I need the recorded test outcome for Cn1cc(-c2csc(-c3c[nH]c4ccc(F)cc34)n2)c2cnccc21 , thank you. yes (1)

Dear all, I need the recorded test outcome for COC(=O)/C=C1/SC(N2N=C(c3cccs3)CC2c2ccc(F)cc2)=NC1=O (stereo not drawn) , thank you. no (0)

Dear all, I need the recorded test outcome for C=C1CC[C@@H]2[C@](C)(COC(C)=O)[C@H](OC(C)=O)CC[C@@]2(C)[C@@H]1CC(Nc1ccc(S(=O)(=O)Nc2nccs2)cc1)C1=CCOC1=O (stereo partly drawn) , thank you. yes (1)

Dear all, I need the recorded test outcome for COc1ccc(CN2CCc3c(Cl)nc(N)nc3C2=O)c(OC)c1 , thank you. no (0)

Dear all, I need the recorded test outcome for C#CCn1cnc2cnc(Nc3cccc(NC(=O)CCl)c3)nc21 , thank you. yes (1)

Dear all, I need the recorded test outcome for CCOC(=O)CC1CSC(c2cccc(Cl)c2)=N1 (stereo not drawn) , thank you. no (0)

Dear all, I need the recorded test outcome for CC(=O)N1N=C(c2ccc(Nc3nc(Nc4ccc(F)cc4)nc(Nc4ccc(F)cc4)n3)cc2)CC1c1ccccc1 (stereo not drawn) , thank you. no (0)

Dear all, I need the recorded test outcome for CN1CCN(Cc2ccc(NC(=O)c3cccc(C#Cc4c(N)ncc5ccc(F)cc45)c3)cc2C(F)(F)F)CC1 , thank you. yes (1)

Dear all, I need the recorded test outcome for Cc1ccc(/C=C(\C#N)c2cc3ccccc3[nH]2)cc1 , thank you. no (0)

Dear all, I need the recorded test outcome for COc1cc(Cl)cc(-c2nn(C(=O)NS(=O)(=O)c3ccc(Cl)cc3)cc2-c2ccncc2)c1 , thank you. no (0)

Dear all, I need the recorded test outcome for C/C=C(/C)C(=O)O[C@@H]1CC(C)(C)CC2C34OC(=O)[C@@]21CC[C@@]3(C)[C@]1(C)CCC2C(C)(C)C(=O)CC[C@]2(C)C1C[C@@H]4Cl (stereo partly drawn) , thank you. no (0)

Dear all, I need the recorded test outcome for CN(C)C(=O)c1cc2cnc(Nc3ccc(-c4csc5c(=S)cc(N6CCOCC6)oc45)cc3)nc2n1C1CCCC1 , thank you. yes (1)

Dear all, I need the recorded test outcome for CN(C)CCN1C(=O)c2c(c3c4ccccc4n4c3c3c2c2ccccc2n3C2CC(O)C(O)C4(C)O2)C1=O (stereo not drawn) , thank you. yes (1)

Dear all, I need the recorded test outcome for O=C1Nc2ccccc2/C1=C/c1cccn1CCCCCn1c2ccccc2c(=O)c2ccccc21 , thank you. no (0)
